Hello, the source for this data is paper PMC5053523, in case you need it.

- Test system: vancomycin resistant enterococci (VRE)
- PROTOCOL_SUMMARY: Broth microdilution MIC50/MIC90, VRE panel
- Type: cell-based
- CONDITION_DETAILS: Enterococcus; 10 VRE strains; read-out: MIC 50
Listed molecules paired with reported log10 MIC50
Kindly note that the scale is log10 and the underlying MIC50 is in µM.

Determine its reported log10 MIC50: O=C(O)[C@@H](Cc1ccccc1)N1C(=O)/C(=C/c2cccc(Cc3ccccc3)c2)SC1=S 1.20

Determine its reported log10 MIC50: O=C(O)[C@H](Cc1ccccc1)N1C(=O)/C(=C/c2cccc(OC/C=C/c3ccc(Cl)c(Cl)c3)c2)SC1=S 0.90

Determine its reported log10 MIC50: O=C(O)[C@@H](Cc1ccccc1)N1C(=O)/C(=C/c2cccc(Oc3ccc(F)cc3)c2)SC1=S 1.51

Determine its reported log10 MIC50: O=C(O)[C@H](Cc1ccccc1)N1C(=O)/C(=C/c2cccc(Oc3ccc(Cl)c(Cl)c3)c2)SC1=S 0.90

Determine its reported log10 MIC50: O=C(O)[C@H](Cc1ccccc1)N1C(=O)/C(=C/c2cccc(-c3ccc(Cl)c(Cl)c3)c2)SC1=S 0.60

Determine its reported log10 MIC50: O=C(O)[C@H](Cc1ccccc1)N1C(=O)/C(=C/c2cccc(Cc3ccc(Cl)c(Cl)c3)c2)SC1=S 0.60

Determine its reported log10 MIC50: O=C(O)[C@H](Cc1ccccc1)N1C(=O)/C(=C/c2cccc(-c3ccccc3)c2)SC1=S 1.20

Determine its reported log10 MIC50: CC(=O)NC[C@H]1CN(c2ccc(N3CCOCC3)c(F)c2)C(=O)O1 [Linezolid, linezolid, reference compound] 0.30
